# Test name: Drug level in fasted Zucker fa/fa rat white adipose tissue assessed per gram of tissue at 30 mg/kg, po after 3 hrs
# Assay type: ADME, organism-based
# Design: dose 30 mg/kg, route oral
# Details: read-out: Drug uptake
Property: concentration at 3 h (ng/g)

# Smiles record, Property, Recorded result
data = [
    ("Cc1c(C(=O)NN2CCCCC2)nn(-c2ccc(Cl)cc2Cl)c1-c1ccc(Cl)s1", "concentration at 3 h", 2970),
]

---

# Test name: Cmax in fasted Zucker fa/fa rat at 30 mg/kg, po
# Type: ADME, organism-based
# Set-up: dose 30 mg/kg, route oral
# Details: in vivo

# Smiles record, Cmax (ng/mL)
rows = [
    ("Cc1c(C(=O)NN2CCCCC2)nn(-c2ccc(Cl)cc2Cl)c1-c1ccc(Cl)s1", 520),
]
